tested on: 168753-222-R-J1-PDC complex spheroid viability; experiment: Anticancer human tumor 168753-222-R-J1-PDC patient-derived bladder carcinoma cell line growth inhibition [CLK]; conditions: second compound 3.16 µM; first compound 3.16 µM; active = viability on the fitted dose curve at most 10% of control; inactive = the rest
// one of yes (1) (active), no (0) (inactive), no free text

Consider the following illustrative entries.
Compound	Target or system	Cat
C#Cc1c(F)ccc2cc(O)cc(-c3ncc4c(N5CC6CCC(C5)N6)nc(OCC56CCCN5CC(F)C6)nc4c3F)c12 (stereo not given) + CNC(=O)c1ccc(Nc2nc(OC3CCCC3)c3c(-c4ccc5nc(C)oc5c4)c[nH]c3n2)c(OC)c1	168753-222-R-J1-PDC complex spheroid viability	no (0)
CC(CO)NC(=O)c1cc(-c2ccc(Cl)cc2)nn(-c2cnn(C)c2)c1=O (stereo not given) + CN1CCN(c2cc(C(=O)Nc3cc4cc(-c5cnn(C)c5)ccc4cn3)ccn2)CC1	168753-222-R-J1-PDC complex spheroid viability	yes (1)
C#Cc1c(F)ccc2cc(O)cc(-c3ncc4c(N5CC6CCC(C5)N6)nc(OCC56CCCN5CC(F)C6)nc4c3F)c12 (stereo not given) + CN1CCN(c2cc(C(=O)Nc3cc4cc(-c5cnn(C)c5)ccc4cn3)ccn2)CC1	168753-222-R-J1-PDC complex spheroid viability	yes (1)

In this assay, the call recorded for Nc1ccccc1NC(=O)c1ccc(CNC(=O)OCc2cccnc2)cc1 + CN1CCN(c2cc(C(=O)Nc3cc4cc(-c5cnn(C)c5)ccc4cn3)ccn2)CC1 was what?
yes (1)

In this assay, the call recorded for C=CC(=O)N1CCN(c2nc(=O)n(-c3c(C)ccnc3C(C)C)c3nc(-c4c(O)cccc4F)c(F)cc23)C(C)C1 (stereo not given) + CN1CCN(c2cc(C(=O)Nc3cc4cc(-c5cnn(C)c5)ccc4cn3)ccn2)CC1 was what?
yes (1)

---

Give viability, T/C for every item shown.
system: 168753-222-R-J1-PDC complex spheroid viability; assay: Anticancer human tumor 168753-222-R-J1-PDC cell line growth inhibition [CLK]; conditions: second compound 0.1 µM; first compound 0.0316 µM; active compounds read low;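 note: luminescence signal used as surrogate for viable cell amount; viability measured after seven days of drug exposure; 100% = DMSO vehicle control wells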
Numbers only, in %.

Compound	viability, T/C / %
COc1ccc([C@@H](O)c2cc(-c3ncnc4cc(N5CCOCC5)ccc34)c(F)cc2Cl)nn1 + CNC(=O)c1ccc(Nc2nc(OC3CCCC3)c3c(-c4ccc5nc(C)oc5c4)c[nH]c3n2)c(OC)c1	91.1
CCCS(=O)(=O)Nc1ccc(F)c(C(=O)c2c[nH]c3ncc(-c4ccc(Cl)cc4)cc23)c1F + CNC(=O)c1ccc(Nc2nc(OC3CCCC3)c3c(-c4ccc5nc(C)oc5c4)c[nH]c3n2)c(OC)c1	91.6
C#Cc1c(F)ccc2cc(O)cc(-c3ncc4c(N5CC6CCC(C5)N6)nc(OCC56CCCN5CC(F)C6)nc4c3F)c12 (configuration not stated) + CN1CCN(c2cc(C(=O)Nc3cc4cc(-c5cnn(C)c5)ccc4cn3)ccn2)CC1	77.7
CCCS(=O)(=O)Nc1ccc(F)c(C(=O)c2c[nH]c3ncc(-c4ccc(Cl)cc4)cc23)c1F + CN1CCN(c2cc(C(=O)Nc3cc4cc(-c5cnn(C)c5)ccc4cn3)ccn2)CC1	80.1

// input: 3 compounds below; output: viability, T/C for each
1. CCN1CCN(Cc2ccc(Nc3ncc(F)c(-c4cc(F)c5nc(C)n(C(C)C)c5c4)n3)nc2)CC1 + CNC(=O)c1ccc(Nc2nc(OC3CCCC3)c3c(-c4ccc5nc(C)oc5c4)c[nH]c3n2)c(OC)c1
2. C=C(F)C(=O)N1CCN(c2nc(OCC3CCCN3C)nc3c2CCN(c2cccc4cccc(Cl)c24)C3)CC1CC#N (configuration not stated) + CNC(=O)c1ccc(Nc2nc(OC3CCCC3)c3c(-c4ccc5nc(C)oc5c4)c[nH]c3n2)c(OC)c1
3. COc1cccc2c1C(=O)c1c(O)c3c(c(O)c1C2=O)CC(O)(C(=O)CO)CC3OC1CC(N)C(O)C(C)O1 (configuration not stated) + CNC(=O)c1ccc(Nc2nc(OC3CCCC3)c3c(-c4ccc5nc(C)oc5c4)c[nH]c3n2)c(OC)c1

1: 78.8; 2: 94.1; 3: 94.5
